# system tested: VHL (Homo sapiens (Human), UniProt P40337)
# test name: VHL fluorescence polarization (FP) competition assay
# Type: binding
# run parameters: 10% in DMSO
measured quantity: IC50 (nM)

Please review the following examples before continuing.
compound: Cc1ncsc1-c1ccc(CNC(=O)[C@@H]2C[C@@H](O)CN2C(=O)[C@@H](C(C)C)N2Cc3ccc(F)cc3C2=O)cc1 [Example 10]
system tested: VHL (Homo sapiens (Human), UniProt P40337)
observed result: 295000
//
compound: COCCCc1ccc2c(c1)CN([C@H](C(=O)N1C[C@H](O)C[C@H]1C(=O)NCc1ccc(-c3scnc3C)cc1)C(C)C)C2=O [Example 57]
system tested: VHL (Homo sapiens (Human), UniProt P40337)
observed result: 1410
//
compound: Cc1ncsc1-c1ccc(CNC(=O)[C@@H]2C[C@@H](O)CN2C(=O)[C@H](C(C)C)N2Cc3cc(Cl)ccc3C2=O)cc1 [Example 73]
system tested: VHL (Homo sapiens (Human), UniProt P40337)
observed result: 1190
//
compound: CC(=O)NC(C(=O)N1C[C@H](O)C[C@H]1C(=O)NCc1ccc(-c2scnc2C)cc1)C(F)(F)F (stereo partly shown) [Example 90]
system tested: VHL (Homo sapiens (Human), UniProt P40337)
observed result: 47900
//
compound: Cc1ncsc1-c1ccc(CNC(=O)[C@@H]2C[C@@H](O)CN2C(=O)[C@@H](NC(=O)CCC2CCCCC2)C(C)(C)C)cc1 [Example 20]
system tested: VHL (Homo sapiens (Human), UniProt P40337)
observed result: 1150

(A) CC[C@H](C)[C@@H](C(=O)N1C[C@H](O)C[C@H]1C(=O)NCc1ccc(-c2scnc2C)cc1)N1Cc2ccccc2C1=O [Example 30]
(B) CC(=O)NCC(=O)N1C[C@H](O)C[C@H]1C(=O)NCc1ccc(-c2scnc2C)cc1 [Example 86]
Consider A and B . Which of these has its IC50 at a higher number? When you have decided, please share the label of that item. B

----------
# system tested: VHL (Homo sapiens (Human))
# test name: VHL fluorescence polarization (FP) competition assay
# Format: binding
# run parameters: 1% in DMSO
measured quantity: IC50 (nM)

smiles data: Cc1ncsc1-c1ccc(CNC(=O)[C@@H]2C[C@@H](O)CN2C(=O)[C@H](C(C)C)N2Cc3ncccc3C2=O)cc1
IC50 [nM]: 418
--
smiles data: Cc1ncsc1-c1ccc(CNC(=O)[C@@H]2C[C@@H](O)CN2C(=O)[C@@H](NC(=O)CCC2CCCCC2)C(C)(C)C)cc1
IC50 [nM]: 1050
--
smiles data: COc1ccc2c(c1)CN([C@H](C(=O)N1C[C@H](O)C[C@H]1C(=O)NCc1ccc(-c3scnc3C)cc1)C(C)C)C2=O
IC50 [nM]: 860
--
smiles data: CC[C@H](C)[C@@H](C(=O)N1C[C@H](O)C[C@H]1C(=O)NCc1ccc(-c2scnc2C)cc1)N1Cc2ccc(F)cc2C1=O
IC50 [nM]: 566

(a) Cc1ncsc1-c1ccc(CNC(=O)[C@@H]2C[C@@H](O)CN2C(=O)[C@@H](NC(=O)CC2CCCCC2)C(C)(C)C)cc1
(b) COCC#Cc1ccc2c(c1)CN([C@H](C(=O)N1C[C@H](O)C[C@H]1C(=O)NCc1ccc(-c3scnc3C)cc1)C(C)C)C2=O
Could you determine which record has the numerically smaller IC50? Candidates: a and b When you have decided, please share the label of that item. b
(b: 474 nM, a: 937 nM)

----------
# system tested: VHL (Homo sapiens (Human), UniProt P40337)
# test name: VHL fluorescence polarization (FP) competition assay
# Type: binding
# run parameters: 1% in DMSO
pIC50: −log10 of the molar value.
measured quantity: pIC50

molecule: CC(C)[C@@H](C(=O)N1C[C@H](O)C[C@H]1C(=O)NCc1ccc(-c2ccnn2C)cc1)N1Cc2ccccc2C1=O
pIC50: 5.78

(a) CC(C)[C@@H](C(=O)N1C[C@H](O)C[C@H]1C(=O)NCc1ccc(-c2ccccc2)cc1)N1Cc2ccccc2C1=O
(b) Cc1ncsc1-c1ccc(CNC(=O)[C@@H]2C[C@@H](O)CN2C(=O)[C@H](C(C)C)N2Cc3cc(Cl)ccc3C2=O)cc1
(c) CC(C)[C@@H](C(=O)N1C[C@H](O)C[C@H]1C(=O)NCc1ccc(-c2ccno2)cc1)N1Cc2ccccc2C1=O
Order the records so the highest pIC50 appears first and the lowest last. Form entry: labels listed in requested order. b, a, c
(b: 5.88, a: 5.63, c: 5.25)

(a) CC(C)[C@@H](C(=O)N1C[C@H](O)C[C@H]1C(=O)NCc1ccc(C2CCCC2)cc1)N1Cc2ccccc2C1=O
(b) Cc1ncsc1-c1ccc(CNC(=O)[C@@H]2C[C@@H](O)CN2C(=O)[C@@H](NC(=O)CCC(C)C)C(C)(C)C)cc1
Could you determine which record has the numerically smaller pIC50? Candidates: a and b When you have decided, please share the label of that item. a
(a: 4.80, b: 5.66)

(A) CC[C@H](C)[C@H](NC(=O)CCC(C)C)C(=O)N1C[C@H](O)C[C@H]1C(=O)NCc1ccc(-c2scnc2C)cc1
(B) Cc1c(-c2ccc(CNC(=O)[C@@H]3C[C@@H](O)CN3C(=O)[C@H](C(C)C)N3Cc4ccccc4C3=O)cc2)ncn1C
Consider A and B . Which of these has its pIC50 at a higher number? When you have decided, please share the label of that item. A
(A: 5.89, B: 4.85)

(a) CCC(C(=O)N1C[C@H](O)C[C@H]1C(=O)NCc1ccc(-c2scnc2C)cc1)c1cc(C)no1 (some centres unmarked)
(b) CC(C)[C@@H](C(=O)N1C[C@H](O)C[C@H]1C(=O)NCc1ccc(-c2ncon2)cc1)N1Cc2ccccc2C1=O
Could you determine which record has the numerically smaller pIC50? Candidates: a and b When you have decided, please share the label of that item. b
(b: 5.36, a: 6.02)

----------
# system tested: VHL (Homo sapiens (Human), UniProt P40337)
# test name: VHL fluorescence polarization (FP) competition assay
# Assay type: binding
# run parameters: 10% in DMSO
measured quantity: IC50 (µM)

compound: Cc1ncsc1-c1ccc(CNC(=O)[C@@H]2C[C@@H](O)CN2C(=O)[C@H](C(C)C)N2Cc3c(C#N)cccc3C2=O)cc1 [Example 35]
measured quantity: IC50
observed result: 1.3
--
compound: Cc1ncsc1-c1ccc(CNC(=O)[C@@H]2C[C@@H](O)CN2C(=O)[C@H](C(C)C)N2Cc3cc(C#N)ccc3C2=O)cc1 [Example 34]
measured quantity: IC50
observed result: 1.18

(A) Cc1ncsc1-c1ccc(CNC(=O)[C@@H]2C[C@@H](O)CN2C(=O)[C@H](C(C)C)N2Cc3cc(Br)ccc3C2=O)cc1 [Example 25]
(B) CC(C)[C@@H](C(=O)N1C[C@H](O)C[C@H]1C(=O)N[C@@H](C)c1ccc(Br)cc1)N1Cc2ccccc2C1=O [Example 24]
(C) Cc1ncsc1-c1ccc(CNC(=O)[C@@H]2C[C@@H](O)CN2C(=O)[C@@H](NC(=O)CCC(C)C)[C@H](C)O)cc1 [Example 51]
(D) CC(C)[C@@H](C(=O)N1C[C@H](O)C[C@H]1C(=O)NCc1ccc(C2(O)COC2)cc1)N1Cc2ccccc2C1=O [Example 127]
Order the records so the highest IC50 appears first and the lowest last. Form entry: labels listed in requested order. C, D, B, A

----------
# system tested: VHL (Homo sapiens (Human), UniProt P40337)
# test name: VHL fluorescence polarization (FP) competition assay
# Type: binding
# run parameters: 10% in DMSO
measured quantity: IC50 (µM)

(P) Cc1ncsc1-c1ccc(CNC(=O)[C@@H]2C[C@@H](O)CN2C(=O)[C@@H](NC(=O)C(C)C)C(C)(C)C)cc1
(Q) Cc1ncsc1-c1ccc(CNC(=O)[C@@H]2C[C@@H](O)CN2C(=O)[C@H](C(C)C)N2Cc3c(Br)cccc3C2=O)cc1
(R) CC(=O)O[C@@H](C)C(=O)N1C[C@H](O)C[C@H]1C(=O)NCc1ccc(-c2scnc2C)cc1
Parameters: sort_by = IC50; order = desc; input = items above. Form entry: labels listed in requested order. R, P, Q
(R: 263 µM, P: 8.31 µM, Q: 0.441 µM)

(P) Cc1ncsc1-c1ccc(CNC(=O)[C@@H]2C[C@@H](O)CN2C(=O)C(N)C(F)(F)F)cc1 (stereo partly shown)
(Q) CC(C)[C@@H](C(=O)N1C[C@H](O)C[C@H]1C(=O)NCc1ccc(-c2ccn[nH]2)cc1)N1Cc2ccccc2C1=O
(R) Cc1ncsc1-c1ccc(CNC(=O)[C@@H]2C[C@@H](O)CN2C(=O)[C@H](C(C)C)N2Cc3cccc(C#N)c3C2=O)cc1
Order the records so the highest IC50 appears first and the lowest last. Form entry: labels listed in requested order. P, Q, R
(P: 139 µM, Q: 3.05 µM, R: 0.339 µM)
